Just for reference, the supplement of paper PMC10266784 is where these values come from.

B1: library; numbered along this chain (parent)
chain: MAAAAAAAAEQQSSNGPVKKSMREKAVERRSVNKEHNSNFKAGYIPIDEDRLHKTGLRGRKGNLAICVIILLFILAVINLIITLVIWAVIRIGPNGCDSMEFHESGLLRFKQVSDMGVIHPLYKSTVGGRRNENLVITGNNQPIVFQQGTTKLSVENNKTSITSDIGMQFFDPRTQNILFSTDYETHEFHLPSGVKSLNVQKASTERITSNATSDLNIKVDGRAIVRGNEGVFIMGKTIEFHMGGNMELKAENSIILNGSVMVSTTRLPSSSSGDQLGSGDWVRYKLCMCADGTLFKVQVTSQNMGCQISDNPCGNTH

variants of: B1; test: SGCB cell-surface expression functional score (HA stain, bin4 vs bin1, normalised to synonymous) (log10 ratio); higher = more cell-surface SGCB (functional)
Assign a class from recorded SGCB cell-surface expression functional score (log10); defined classes: lower level = under -0.05, middle level = from -0.05 up to 0.2, upper level = 0.2 and over

- Variant id: "R227V"
  Label value: "upper level"
- Variant id: "A26D"
  Label value: "upper level"
- Variant id: "M168N"
  Label value: "lower level"
- Variant id: "Q169T"
  Label value: "middle level"
- Variant id: "E101V"
  Label value: "lower level"
- Variant id: "D48N"
  Label value: "middle level"
- Variant id: "R91T"
  Label value: "lower level"
- Variant id: "G245F"
  Label value: "lower level"
- Variant id: "N258P"
  Label value: "lower level"
- Variant id: "N79A"
  Label value: "upper level"
- Variant id: "D215S"
  Label value: "lower level"
- Variant id: "N95G"
  Label value: "upper level"
- Variant id: "G293Q"
  Label value: "upper level"
- Variant id: "I309N"
  Label value: "middle level"
- Variant id: "S114F"
  Label value: "lower level"
- Variant id: "H36K"
  Label value: "upper level"
- Variant id: "M22P"
  Label value: "middle level"
- Variant id: "A6Y"
  Label value: "upper level"
- Variant id: "I225M"
  Label value: "upper level"
- Variant id: "G59H"
  Label value: "middle level"
